Target: T1, recombinant human PD-L2 (human PD-L2 antigen) (human, UniProt Q9BQ51 20-219, limits assumed)
T1 construct: The Biacore analyte and the ELISA antigen are only called human PD-L2 antigen / recombinant hPD-L2; Whole entry named; also called hPD-L2; recombinant hPD-L2
T1 sequence (looked up): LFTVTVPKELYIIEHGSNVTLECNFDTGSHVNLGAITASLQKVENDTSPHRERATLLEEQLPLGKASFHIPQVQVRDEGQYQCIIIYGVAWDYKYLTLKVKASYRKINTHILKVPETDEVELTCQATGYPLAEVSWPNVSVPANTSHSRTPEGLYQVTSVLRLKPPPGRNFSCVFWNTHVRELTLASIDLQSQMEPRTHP
Assay: SPR (Biacore 8K), single cycle kinetics, antibody in culture supernatant, human PD-L2 antigen
readoutLabel: Relative KD (KD of variant / KD of VH0/VK0)

- binder: "VH8/VK1 (antibody, V domains shown, hIgG1 backbone, CHO expressed) VH: QVQLVQSGAEVKKPGSSVKVSCKASGYAFSNYFIEWVKQPPGKGLEWIGLNIPGSGGSNYAEKFKGRATITADKSTSTAYMELSSLRSEDTAVYYCARRRLPPDWYFDVWGQGTTVTVSS VL: DVVMTQSPLSLPVTLGQPASISCRSSQSLVHSDGNTYLHWYQQKPGQPPKLLIYKVSNRFSGVPDRFSGSGSGTDFTLKISRVEAEDVGVYFCSQSTHVPWTFGGGTKVEIK"
  valueObserved: 1.48
- binder: "VH2/VK2 (antibody, V domains shown, hIgG1 backbone, CHO expressed) VH: QVQLVQSGAEVKKPGSSVKVSCKASGYAFSNYFIEWVKQPPGKGLEWIGLNIPGSGGSNYAEKFKGRATITADKSTSTAYMELSSLRSEDSAVYFCARRRLPPDWYFDVWGQGTTVTVSS VL: DVVMTQSPLSLPVTLGQPASISCRSSQSLVHSDGNTYLHWYQQKPGQPPKLLIYKVSNRFSGVPDRFSGSGSGTDFTLKISRVEAEDVGVYYCSQSTHVPWTFGGGTKVEIK"
  valueObserved: 1.55
- binder: "VH4/VK1 (antibody, V domains shown, hIgG1 backbone, CHO expressed) VH: QVQLVQSGAEVKKPGSSVKVSCKASGYAFSNYFIEWVKQPPGKGLEWIGLNIPGSGGSNYAEKFKGRVTITADKSTSTAYMELSSLRSEDTAVYYCARRRLPPDWYFDVWGQGTTVTVSS VL: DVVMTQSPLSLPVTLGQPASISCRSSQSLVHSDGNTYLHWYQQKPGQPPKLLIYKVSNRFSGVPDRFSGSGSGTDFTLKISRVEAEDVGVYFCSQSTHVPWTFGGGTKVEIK"
  valueObserved: 1.64
